Tested on: XG-2
condition.label: XG-2, 24 hours, Table 1
Description: The luminescent readings obtained in the assay were used to measure the percentage of cell death following treatment with increasing doses of BOLD-100 for 24 hours. Each cell line was treated in triplicate and the average cell death was used to calculate the IC50 or […] inhibitory concentration dose in these cell lines using a nonlinear regression fit.
quantity.name: IC50 (µM)
Just the number please, in µM, no unit attached.

Entry under test: [Cl][Ru]([Cl])([Cl])[Cl].[Na+].c1ccc2[nH]ncc2c1.c1ccc2[nH]ncc2c1 [BOLD-100] . Its IC50 was 54

---

Test system: MM.1S BR (bortezomib resistant)
condition.label: read-out: BOLD-100 IC50, 24 hours, Example 2, FIG. 2A
quantity.name: pIC50
pIC50 field: float, defined as -log10 of concentration (mol/L).

Entry under test: "[Cl][Ru]([Cl])([Cl])[Cl].[Na+].c1ccc2[nH]ncc2c1.c1ccc2[nH]ncc2c1" . Its pIC50 was 4.64

---

System: OPM2
condition.label: read-out: BOLD-100 IC50; OPM2, 24 hours, Example 2, FIG. 2B
quantity.name: IC50
A bare number is not enough; add the unit after it.

Reported IC50 (OPM2) for entry "[Cl][Ru]([Cl])([Cl])[Cl].[Na+].c1ccc2[nH]ncc2c1.c1ccc2[nH]ncc2c1" is 120 µM

---

System: KMS27
condition.label: KMS27, 24 hours, Table 1
quantity.name: IC50 (µM)
Just the number please, in µM, no unit attached.

Entry under test: [Cl][Ru]([Cl])([Cl])[Cl].[Na+].c1ccc2[nH]ncc2c1.c1ccc2[nH]ncc2c1 [BOLD-100] . Its IC50 was 128
